Source of measurements: PubChem BioAssay (NCI)

System: NCI/ADR-RES ovarian
Assay: NCI tumour cell line growth inhibition, 48 h
EXPERIMENTAL_READOUT: TGI (µM)
Numbers only; they are read as µM.

# annotated cases, reported TGI shown
Cc1ccc2c(=O)cc(-c3cc(C)sc3C)[nH]c2n1
5.29
O=c1c(-c2ccccc2)c(SCCCN2CCCCC2)n(-c2ccccc2)c(=S)n1-c1ccccc1
43.8

What measured TGI goes with N#CC1=C(N)Oc2c(ccc3ccccc23)C1c1cc2ccccc2n2nnnc12 (stereo unspecified) ? 46.6

====

Tested on: HCT-116 colon
Experiment: NCI tumour cell line growth inhibition, 48 h
TGI overview

# annotated cases, reported TGI shown
CCCCCC(=O)OC[n+]1cccc(-c2c(COC(=O)NC(C)C)c(COC(=O)NC(C)C)c3n2CCC3)c1
> 100 µM
CN(/N=C/c1ccccn1)C1=NCCN1
> 100 µM
NCCc1ccc(S(=O)(=O)O)cc1[N+](=O)[O-]
> 100 µM
COC(=O)C1CC(=O)O[C@H]1c1ccc(OC)c(OC)c1 (some centres undefined)
> 100 µM
COc1ccc(OC)c(/C=C2/C(=O)N=C(NC(C)=O)N2C)c1
> 100 µM

What measured TGI goes with O=[N+]([O-])c1ccc(/C=C/c2ccc(/C=C/c3ccc([N+](=O)[O-])cc3[N+](=O)[O-])cc2)c([N+](=O)[O-])c1 ? > 100 µM

What measured TGI goes with CC(=O)Nc1nc2c(=O)c3ccccc3sc2s1 ? > 100 µM

What measured TGI goes with c1ccc(C(NC2=NCCO2)C2CC2)cc1 (centres undefined) ? > 100 µM

What measured TGI goes with O=c1c(Oc2ccc(F)cc2F)cc2cnc(NC3CCOCC3)nc2n1C1CC1 ? > 25 µM

====

TGI overview
Test system: SF-295 CNS
Assay: NCI tumour cell line growth inhibition, 48 h

# annotated cases, reported TGI shown
COc1ccc(OC/C(N)=N/NC(=O)c2ccncc2)cc1
> 100 µM
CCOc1ccc(NC(=O)C(=O)C(/C(=N/N)C(=O)OC)c2nc3ccc([N+](=O)[O-])cc3[nH]c2=O)cc1 (centres undefined)
> 100 µM
CO/C(N)=C(\C#N)N=Cc1ccsc1
> 100 µM
O=[N+]([O-])c1ccc(/C=C(/c2ccc([N+](=O)[O-])o2)S(=O)(=O)c2ccccc2)cc1
> 100 µM
O=C(CC1(O)C(=O)Nc2c(Cl)ccc(Cl)c21)c1ccc(Cl)cc1 (centres undefined)
83.4 µM
CCOC(OCC)(OCC)C(Br)CC (centres undefined)
> 100 µM
Cc1cccc(C)c1NC(=O)C(=O)CC(=O)c1sc(Nc2c(C)cccc2C)nc1C
> 100 µM
COc1cc(Nc2cc(Cl)cc(Cl)c2)nc(N)n1
38.3 µM

What measured TGI goes with CCCCCNC(=O)CCCCCCCCCCCNC(=O)CCCCCCCCCCN1C=CC(=CC=C2C=CC(=O)C=C2)C=C1 ? > 100 µM

What measured TGI goes with CCCCCCCCCCCCOC1C(C(COC2OC(C(O)CO)C3OC(C)(C)OC23)OC(=O)Nc2ccccc2)OC2OC(C)(C)OC21 (centres undefined) ? 17.7 µM

What measured TGI goes with Cc1cc2nnn(C3CCCCO3)c2cc1C (centres undefined) ? > 100 µM

What measured TGI goes with CC(C)(C)C1CCC(O)(c2ccccc2)CC1 (centres undefined) ? > 100 µM

What measured TGI goes with N#CC1(CCCCl)CCCCC1 ? > 100 µM

What measured TGI goes with COc1cc(S(=O)(=O)Nc2nc(-c3ccc(N=Cc4ccccc4O)cc3)cs2)ccc1Cl ? > 100 µM

====

TGI overview
System: IGROV1 ovarian
Experiment: NCI tumour cell line growth inhibition, 48 h

COc1ccc(OC)c(/C=C2/C(=O)N=C(NC(C)=O)N2C)c1
> 100 µM
CN(/N=C/c1ccccn1)C1=NCCN1
> 100 µM
Nc1nccc(NCC2(CO)CC(CCc3ccccc3)C2)n1 (centres undefined)
33.3 µM

What measured TGI goes with C=CCN1C(=O)NC(=O)/C(=C/c2c3ccccc3cc3ccccc23)C1=O ? > 10 µM

====

TGI overview
System: OVCAR-4 ovarian
Test: NCI tumour cell line growth inhibition, 48 h

# annotated cases, reported TGI shown
C=CCN(CC=C)Cc1c[nH]c2ccccc12
> 100 µM
CC1(C)CC(=O)C(C(=O)Nc2cccs2)=C(O)C1
> 100 µM
COC(=O)C1(CCCCl)CCCN1C(=O)OC(C)(C)C (stereo unspecified)
> 100 µM
C(=NC12CC3CC(CC(C3)C1)C2)C1CCCCC1
> 100 µM
OC[C@H]1C[C@](O)(c2ccc(F)cc2)[C@@H](c2ccc(F)cc2)O1
> 100 µM
O=C(/C=C(\[O-])c1ccccc1)CCCCCCC(=O)/C=C(\[O-])c1ccccc1.O=C(/C=C(\[O-])c1ccccc1)CCCCCCC(=O)/C=C(\[O-])c1ccccc1.O=C(/C=C(\[O-])c1ccccc1)CCCCCCC(=O)/C=C(\[O-])c1ccccc1.[Y+3].[Y+3]
> 50 µM
NS(=O)(=O)c1c(O)c2ccccc2oc1=O
> 100 µM
CN(CC(=O)Nc1ccccc1C(=O)O)c1ccccc1
> 100 µM

What measured TGI goes with COC(=O)C(=O)C(C(=O)C(=O)Nc1cccc(OC)c1)c1nc2ccc(Cl)cc2[nH]c1=O (stereo unspecified) ? > 100 µM

What measured TGI goes with CCCCCC(=O)OC[n+]1cccc(-c2c(COC(=O)NC(C)C)c(COC(=O)NC(C)C)c3n2CCC3)c1 ? > 100 µM

What measured TGI goes with CC(C)=CCC[C@@H](C)C1=C(N)C(O)=C(C)C(=O)C1=O ? > 75 µM

What measured TGI goes with C#CCCCCCC(=O)N[C@H]1C=C[C@@H]2/C=C(C)/C=C/[C@@H](C)[C@H]([C@H](C)[C@H](O)[C@@H](C)NC(C)=O)OC(=O)/C=C/C=C(C)\C=C\[C@]2(C)C1 ? > 40 µM

What measured TGI goes with O=C(O)c1cn(C2CC2)c2cc(N3CCN(C(=O)N(c4ccccc4)c4nc(-c5ccccc5)cs4)CC3)c(F)cc2c1=O ? > 100 µM

What measured TGI goes with CN(Cc1cccc2ccsc12)/N=C\c1ccc(Cl)cc1 ? > 100 µM

What measured TGI goes with COC1=CC(=O)C(O)=C(CC2(C)C(C)CCC3(C)C2CCCC3(C)C)C1=O (stereo unspecified) ? > 100 µM

What measured TGI goes with O=C(OC1OC2COC(=O)c3cc(O)c(O)c(O)c3-c3c(cc(O)c(O)c3O)C(=O)OC3C2OC(=O)[C@@]24CC(=O)[C@@](O)(OC25C(=O)O[C@H]2[C@@H](O)CO[C@@]25O)C2(O)Oc5c(O)c(O)cc(c5C24)C(=O)OC13)c1cc(O)c(O)c(O)c1 (stereo partly specified) ? > 100 µM

====

TGI overview
System: M14 melanoma
Assay: NCI tumour cell line growth inhibition, 48 h

# annotated cases, reported TGI shown
Cc1ccc2c(=O)cc(-c3cc(C)sc3C)[nH]c2n1
> 100 µM
CCOC(=O)c1cn(-c2ccc([N+](=O)[O-])cc2)c(=S)n2c1nc1ccccc12
> 100 µM

Pending compound:
What measured TGI goes with Cc1cccc(C)c1NC(=O)C(=O)CC(=O)c1sc(Nc2c(C)cccc2C)nc1C ? > 100 µM

====

TGI overview
Test system: EKVX NSCLC
Assay: NCI tumour cell line growth inhibition, 48 h

# annotated cases, reported TGI shown
O=C1NC(c2ccccc2Cl)Nc2ccccc21 (stereo unspecified)
> 100 µM
O=C(Nc1ccc(Cl)cc1Cl)C1C(=O)OC2(CCCCC2)OC1=O
32.3 µM

What measured TGI goes with Cc1ccc(-c2nc([P+](c3ccccc3)(c3ccccc3)c3ccccc3)c(N3CCOCC3)o2)cc1 ? 9.99 µM

What measured TGI goes with CCOC(OCC)(OCC)C(Br)CC (stereo unspecified) ? > 100 µM

====

System: UACC-62 melanoma
Assay: NCI tumour cell line growth inhibition, 48 h
TGI overview

CC(=O)NC(CCCNC(=O)OCc1ccccc1)C(=O)NCc1ccccc1 (stereo not drawn)
> 100 µM
c1cc(OCCCCCOc2cccc(-c3nc4ccccc4[nH]3)c2)cc(-c2nc3ccccc3[nH]2)c1
> 100 µM

Query TGI on UACC-62 melanoma for O=c1[nH]c2ccccc2c2oc3ccccc3c12 > 100 µM

====

Tested on: NCI-H23 lung
Test: NCI tumour cell line growth inhibition, 48 h
TGI overview

What measured TGI goes with COC(=O)/C(=N\N)C(C(=O)C(=O)Nc1cc(Cl)ccc1Cl)c1nc2ccc([N+](=O)[O-])cc2[nH]c1=O (stereo unspecified) ? > 100 µM

====

Test system: IGROV1 ovarian
Experiment: NCI tumour cell line growth inhibition, 48 h
EXPERIMENTAL_READOUT: GI50

Cc1ccc(-c2nc([P+](c3ccccc3)(c3ccccc3)c3ccccc3)c(N3CCOCC3)o2)cc1
0.419 µM
CCOC(=O)c1c(Cl)c2c(n1Cc1ccccc1)-c1oncc1CCC2
4.39 µM

What measured GI50 goes with FC(F)(F)c1cccc(CNC2CCN(CCc3ccccc3)CC2)c1 ? 55.9 µM
